Numbers sourced from patent US6525022B1.

# System Tested: T1, human natriuretic peptide receptor-A (human), P16066
# T1 chain: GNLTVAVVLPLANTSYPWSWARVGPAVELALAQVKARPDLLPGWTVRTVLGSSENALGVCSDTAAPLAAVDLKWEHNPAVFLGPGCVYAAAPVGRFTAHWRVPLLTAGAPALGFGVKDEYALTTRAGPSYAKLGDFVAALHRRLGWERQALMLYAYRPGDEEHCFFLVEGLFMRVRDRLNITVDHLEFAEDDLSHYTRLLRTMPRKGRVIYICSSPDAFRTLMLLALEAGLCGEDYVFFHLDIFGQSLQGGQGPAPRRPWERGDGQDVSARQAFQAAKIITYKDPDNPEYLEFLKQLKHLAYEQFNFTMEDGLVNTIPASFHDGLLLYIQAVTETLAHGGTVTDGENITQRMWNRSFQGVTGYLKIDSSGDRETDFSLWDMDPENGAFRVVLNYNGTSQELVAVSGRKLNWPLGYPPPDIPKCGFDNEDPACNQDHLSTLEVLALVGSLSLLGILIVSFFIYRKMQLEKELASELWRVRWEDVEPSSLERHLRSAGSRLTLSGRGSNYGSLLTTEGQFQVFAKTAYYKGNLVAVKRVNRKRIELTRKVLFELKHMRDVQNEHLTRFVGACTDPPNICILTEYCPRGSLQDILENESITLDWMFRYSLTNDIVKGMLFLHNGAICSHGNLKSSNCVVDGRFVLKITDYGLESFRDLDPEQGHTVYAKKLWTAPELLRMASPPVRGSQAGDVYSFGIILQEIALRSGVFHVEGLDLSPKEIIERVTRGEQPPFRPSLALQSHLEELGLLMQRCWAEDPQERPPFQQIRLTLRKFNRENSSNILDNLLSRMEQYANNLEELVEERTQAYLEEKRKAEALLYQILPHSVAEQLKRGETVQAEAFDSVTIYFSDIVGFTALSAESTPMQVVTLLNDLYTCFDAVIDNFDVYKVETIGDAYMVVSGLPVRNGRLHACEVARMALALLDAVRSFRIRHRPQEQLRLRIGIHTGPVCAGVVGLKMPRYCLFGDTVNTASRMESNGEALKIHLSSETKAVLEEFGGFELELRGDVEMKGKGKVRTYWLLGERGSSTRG
# Assay Text: competition binding, Table I; tracer and receptor format not given
pIC50: −log10 of the molar value.
Reported pIC50 is given for each of the following binders.
Parameter: pIC50

[[record]]
binder = "TAPRSLRRSSCFTGSIDRIRAQSGLGCNSFRY (modifications not checked) [ANF 76]"
observed = 11.05

[[record]]
binder = "SLRRSSCFGKSMDRIGAQSGLGCNSFRY (modifications not checked) [ANF 60]"
observed = 9.95

